study_target: ALX4 WT (ITC, mutant-series EMSA) (mouse cDNA (human protein sequence …, UniProt O35137 158-291))
Sequence (O35137 158-291, change not shown): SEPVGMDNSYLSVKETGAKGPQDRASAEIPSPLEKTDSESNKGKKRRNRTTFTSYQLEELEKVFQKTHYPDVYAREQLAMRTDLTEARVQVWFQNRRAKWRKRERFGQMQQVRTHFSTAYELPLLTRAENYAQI
protocol_text: ITC
quantity_name: Kd (nM)
Reply numerically in nM, unit not repeated.

# binder 14-mer monomer site ITC duplex (dsDNA) DNA 1: CGCTAATTAGCTCG DNA 2: CGAGCTAATTAGCG ; its Kd = 15.5
